Tested on: HOP-62 NSCLC
Assay: NCI-60 one-dose screen, 48 h
Conditions: 10 µM unless noted
Experimental: Growth inhibition of the HOP-62 human Non-Small Cell Lung tumor cell line is measured as a screen for anti-cancer activity. Cells are grown in 96 well plates and exposed to the test compound for 48 hours. Compounds are tested at a single concentration, which is 10^-5 M for most compounds. The reported endpoint is percent growth (GI% or GIPRCNT), where numbers from 0 - 100% represent growth inhibition, and numbers from -100% - 0 represent cell death. […]
This is part of a sample that, as a whole, favours compounds with a hit. Of some 83,000 tested, about 20% had one in any assay. Activity calls are given as the source filed them. How the source made its calls: active means growth percent below 10; inactive means the rest.
Classes used: active, inactive

- COMPOUND: "COc1cc2nc(-c3cnc(N(C)C)nc3)nc(NC3CCN(Cc4ccccc4)CC3)c2cc1OC"
  CLASS: "active"
- COMPOUND: "COC(=O)c1ccc(NC(=O)CSc2nc3ccccc3c(=O)n2-c2ccccc2)cc1"
  CLASS: "inactive"
- COMPOUND: "O=C1/C(=C/c2cccc(O)c2)COc2ccc(O)cc21"
  CLASS: "inactive"
- COMPOUND: "COc1cc(C2C3=C(COC3=O)N(CCO)c3cc4c(cc32)OCCO4)cc(OC)c1O (configuration not stated)"
  CLASS: "inactive"
- COMPOUND: "Cc1ccc(OCCCCCCNCCO)c(C)c1"
  CLASS: "inactive"
- COMPOUND: "COc1c(B(O)O)cccc1-c1nc2ccc3[nH]ncc3c2c2c1C1CCC2C1 (configuration not stated)"
  CLASS: "inactive"
- COMPOUND: "COc1cc(-c2c3c(c(Br)n2Cc2ccccc2)-c2nc(N)sc2CC3)cc(OC)c1OC"
  CLASS: "inactive"
- COMPOUND: "O=C(Nc1ccc(F)cc1F)c1cc(I)ccc1O"
  CLASS: "active"
- COMPOUND: "CC(C)CCOc1ccc(-c2n[nH]c(C(F)(F)F)c2-c2cncc(C#N)c2)c(O)c1"
  CLASS: "active"
- COMPOUND: "Cc1nc(Nc2ccccn2)sc1C(=O)/C=C/c1ccc(Cl)cc1"
  CLASS: "inactive"
- COMPOUND: "CCc1ccc(CNCC(O)c2ccccc2)cc1 (configuration not stated)"
  CLASS: "inactive"
- COMPOUND: "CN1CCN(c2nc(Nc3ccc(O)cc3)nc3ccccc23)CC1"
  CLASS: "inactive"
- COMPOUND: "O=C(Nc1ccc(N2CCNCC2)cn1)c1[nH]ncc1Nc1ncnc2sc3c(c12)CCC3"
  CLASS: "inactive"
- COMPOUND: "COc1ccc(Cn2c(Br)c3c(c2-c2cc(OC)c(OC)c(OC)c2)CCc2sc(NC(=O)c4ccc(OC)cc4)nc2-3)cc1"
  CLASS: "inactive"
- COMPOUND: "Cc1cccc2c(=O)c3c(sc12)c(NCCCNCCO)nc1ccccc13"
  CLASS: "inactive"
- COMPOUND: "CCCCN1CCN(c2ccc3nc(-c4ccc5nc(-c6ccc(OCC)cc6)[nH]c5c4)[nH]c3c2)CC1"
  CLASS: "inactive"
- COMPOUND: "COc1ccc2c(c1)C=C1CSCC3=Cc4cc(OC)ccc4OC13O2"
  CLASS: "inactive"
- COMPOUND: "Cn1c(C(=O)c2cccc3ccccc23)nc2ccccc21"
  CLASS: "inactive"
- COMPOUND: "O=C(O)c1cn(C2CC2)c2cc(N3CCN(C(=O)C[n+]4ccccc4)CC3)c(F)cc2c1=O"
  CLASS: "inactive"
- COMPOUND: "Clc1ccc(Nc2nnc(-c3ccc4c(c3)OCO4)o2)cc1"
  CLASS: "inactive"
- COMPOUND: "O=S1(=O)CCN(Cc2ccccc2)CC1"
  CLASS: "inactive"
- COMPOUND: "CCCCN1CCN(c2ccc3nc(-c4ccc5nc(-c6ccc(C(F)(F)F)cc6)[nH]c5c4)[nH]c3c2)CC1"
  CLASS: "active"

* * *

Tested on: NCI-H23 lung
Assay: NCI-60 one-dose screen, 48 h
Settings: 10 µM unless noted
This is part of a sample that, as a whole, favours compounds with a hit. Of some 83,000 tested, about 20% had one in any assay. The source made the active and inactive calls. The calls were made as follows: active = growth percent below 10; inactive = the rest.
Classes used: true = active, false = inactive

- MOLECULE: "COc1cccc2c(=O)c3c(sc12)c(NCCCNCCO)nc1ccccc13"
  CLASS: "false"
- MOLECULE: "Cn1c(/C=C(\\C#N)c2ccccc2)nc2c(N3CCOCC3)nc(Cl)nc21"
  CLASS: "false"
- MOLECULE: "COc1ccc(N)c(-c2cc3c(c4c2[nH]c2ccc(OC)cc24)CCCC3)c1"
  CLASS: "false"
- MOLECULE: "COc1cc(C(C)n2cc(-c3ccccc3)nn2)ccc1OC1CCCC1 (stereo not given)"
  CLASS: "false"
- MOLECULE: "COc1ccc(Cn2cc(Cn3c(=O)c(-c4nc5ccccc5[nH]4)cc4ccccc43)nn2)c(OC)c1OC"
  CLASS: "true"
- MOLECULE: "CCOC(=O)c1cc2c(n1Cc1cc(OC)c(OC)c(OC)c1)-c1oncc1CCC2"
  CLASS: "false"
- MOLECULE: "COc1ccc(C2C3=C(COC3=O)N(CCO)c3cc4c(cc32)CCC4)cc1 (stereo not given)"
  CLASS: "false"
- MOLECULE: "COc1c(B(O)O)cccc1-c1nc2ccc3n[nH]c(F)c3c2c2c1CCCC2"
  CLASS: "false"
- MOLECULE: "COC(=O)C1(C)CCC[C@]2(C)[C@H]3C[C@H]4C(C(C)C)=C[C@]3(CC[C@@H]12)[C@H]1[C@@H]4[C@@H](OCC#CCN2CCOCC2)CC[C@@H]1OCC#CCN1CCOCC1 (stereo not given in full)"
  CLASS: "false"
- MOLECULE: "Cc1ccc2sc3c(NCCCNCCO)nc4ccccc4c3c(=O)c2c1"
  CLASS: "false"
- MOLECULE: "Cc1cccc2c(=O)c3c(sc12)c(NCCCNCCO)nc1ccccc13"
  CLASS: "false"
- MOLECULE: "COc1ccccc1C(=O)O/N=C(\\N)Cc1cccc2ccccc12"
  CLASS: "false"
- MOLECULE: "NCCCNc1nc2ccccc2c2c(=O)c3cc(F)ccc3sc12"
  CLASS: "false"
- MOLECULE: "O=C1c2cc(Cl)ccc2Oc2cc([N+](=O)[O-])ccc2N1c1ccc(F)cc1F"
  CLASS: "false"
- MOLECULE: "O=C(NC1C(O)OC(CO)C(O)C1O)NS(=O)(=O)c1ccc(Cl)cc1 (stereo not given)"
  CLASS: "false"
- MOLECULE: "CCCCCCC(O)(c1ccc(F)cc1)C(CN1CCOCC1)c1ccccc1 (stereo not given)"
  CLASS: "false"
- MOLECULE: "Cn1nc(C(F)(F)F)c(-c2ccc(Cl)c(C(F)(F)F)c2)c1-c1ccc(OCc2ccc(Cl)cc2)cc1O"
  CLASS: "true"
- MOLECULE: "COc1ccc(C(O)(CCC(C)C)C(CN2CCOCC2)c2ccc(Cl)cc2)cc1 (stereo not given)"
  CLASS: "false"
- MOLECULE: "CCN1CCN(c2cc(C)c3cc(NC(=O)c4ccc(OC)c(OC)c4)ccc3n2)CC1"
  CLASS: "false"
- MOLECULE: "NCCNc1nc2ccc(F)cc2c2c(=O)c3cc(F)ccc3sc12"
  CLASS: "false"
- MOLECULE: "Clc1ccc(Oc2ccc(Nc3ncnc4onc(-c5ccccc5)c34)cc2)c(Cl)c1"
  CLASS: "false"
- MOLECULE: "COC(=O)/C(=C\\c1c(C)[nH]c2ccccc12)S(=O)(=O)c1ccccc1"
  CLASS: "false"
- MOLECULE: "CCOc1ccccc1CN1CCc2nc3cc(C(C)(C)C)[nH]n3c(=O)c2C1"
  CLASS: "false"
- MOLECULE: "C=C[C@@H]1CCC/C=C/[C@@H]2C[C@H](O)C[C@H]2[C@H](O)/C=C/C(=O)O1"
  CLASS: "true"
- MOLECULE: "Cc1cc2c(c(C)c1Cl)C(=O)/C(=C/c1cccc([N+](=O)[O-])c1)O2"
  CLASS: "false"
- MOLECULE: "NC1C(N)C(N)C1N (stereo not given)"
  CLASS: "false"
- MOLECULE: "COc1cc(/C(C#N)=C/c2nc3c(N4CCOCC4)nc(Cl)nc3n2C)cc(OC)c1OC"
  CLASS: "false"
- MOLECULE: "O=C(Cn1cc(COc2ncnc3c2cnn3-c2ccccc2)nn1)Nc1ccccn1"
  CLASS: "false"
- MOLECULE: "O=c1oc2ccc(Br)cc2c(=O)n1-c1ccc(F)cc1F"
  CLASS: "true"
- MOLECULE: "COc1ccccc1C(=O)/C=C/c1ccccc1"
  CLASS: "false"
- MOLECULE: "O=c1c(-c2nc3ccccc3[nH]2)cc2ccccc2n1Cc1cn(Cc2ccccc2Cl)nn1"
  CLASS: "false"
- MOLECULE: "CCCCN1CCN(c2ccc3nc(-c4ccc5nc(-c6ccc(C(F)(F)F)cc6)[nH]c5c4)[nH]c3c2)CC1"
  CLASS: "true"
- MOLECULE: "CN1CCN(Cc2ccc(C(=O)Nc3cncc(C#Cc4cnc5cccnn45)c3)cc2C(F)(F)F)CC1"
  CLASS: "false"
- MOLECULE: "O=[N+]([O-])c1cc2c(ccc3occc32)o1"
  CLASS: "false"
- MOLECULE: "CSc1nc2c(c(=O)n1C)N=C1c3ccccc3C(=O)C1C(c1ccccc1)N2 (stereo not given)"
  CLASS: "false"
- MOLECULE: "COc1cc(/C=C/C(=O)c2ccc(Cl)cc2)cc(CN2CCCCC2)c1O"
  CLASS: "false"
- MOLECULE: "COc1ccc(/C=C/C(=O)c2ccc3cc(OC)c(OC)cc3c2)cc1OC"
  CLASS: "false"
- MOLECULE: "O=C(NC1CCN(Cc2ccccc2)CC1)c1cc(C(=O)NC2CCN(Cc3ccccc3)CC2)cc(C(=O)NC2CCN(Cc3ccccc3)CC2)c1"
  CLASS: "false"
- MOLECULE: "COc1ccc(-c2cn[nH]c2-c2cc(OC)c(OC)c(OC)c2)cc1OCc1ccccc1"
  CLASS: "false"
- MOLECULE: "O=c1oc2ccc(F)cc2c(=O)n1-c1ccc(Cl)cc1F"
  CLASS: "true"
